# Test system: THP-1 cells
# assay-name: Measurement of IL-1β production, hTRF protocol (second alternative procedure), THP-1 cells
# Assay type: cell-based, human
# condition-info: Homo sapiens, THP-1, IL-1β production, human; read-out: NLRP3 hILIB EC50
# Description: Measurement of IL-1β Production—hTRF Protocol (Second Alternative Procedure) Serial dilutions of compounds in DMSO were added to low volume 384 well plates at 100 nl/well using an ECHO 550 acoustic dispenser (Labcyte) to achieve final starting concentration of 10 μM in assay. […] After the 2 hour incubation, the cell plates were spun in the centrifuge for 5 minutes at 1200 rpm. […] The plates were then read on the Perkin Elmer EnVision at 665/615 nm using the hTRF laser.
Please use Yes for EC50 under 0.8 µM and No for everything else, ties included.

compound	group
CC(C)(CO)Cn1cc2c(N)nc3cc(-c4cc[nH]n4)ccc3c2n1	Yes
CC(=O)NCCn1cc2c(n1)c(N)nc1cc(-c3cccs3)ccc12	Yes
CC[C@@H](O)Cn1cc2c(N)nc3cc(-c4cc[nH]n4)ccc3c2n1	Yes
Nc1nc2cc(-c3cc[nH]n3)ccc2c2nn(C3CCC(O)C3)cc12 (single isomer, unassigned) [Example 341]	Yes
Nc1nc2cc(-c3cc[nH]n3)ccc2c2cn(CCCNC(=O)c3ccccn3)nc12	No

QUERY: Take the compound Nc1nc2cc(-c3cc[nH]n3)ccc2c2nn(Cc3cc[nH]n3)cc12 and say whether its EC50 is less than 0.8 µM.
RESULT: Yes

QUERY: Take the compound C[C@@H](O)Cn1cc2c(N)nc3cc(-c4cc[nH]n4)ccc3c2n1 and say whether its EC50 is less than 0.8 µM.
RESULT: Yes

====

# System: THP-1 cells
# assay-name: Measurement of IL-1β production, hTRF protocol (second alternative procedure), THP-1 cells
# Type: cell-based, human
# condition-info: Homo sapiens, THP-1, IL-1β production, human; read-out: NLRP3 hILIB EC50
pEC50: −log10 of the molar value.
Please mark satisfied if the recorded pEC50 is equal to or greater than 6, and not satisfied if it falls below.

Before answering, review these 4 worked examples.
compound	group
Nc1nc2cc(-c3cc[nH]n3)ccc2c2cn(Cc3nnc(-c4ccccc4)o3)nc12	satisfied
Cc1nc(C(=O)NCCn2cc3c(n2)c(N)nc2cc(-c4cc[nH]n4)ccc23)co1	satisfied
Nc1nc2cc(-c3cc[nH]n3)ccc2c2cn(CCNC(=O)c3cccnn3)nc12	not satisfied
Nc1nc2cc(-c3cc[nH]n3)ccc2c2nn(CC3CC(F)(F)C3)cc12	satisfied

QUERY: Test whether the compound CCOCC(=O)NC(C)Cn1cc2c(N)nc3cc(-c4ccn[nH]4)ccc3c2n1 (stereo not drawn) records pEC50 of 6 or higher.
RESULT: not satisfied

QUERY: Test whether the compound N#CC1(C(=O)NCCn2cc3c(N)nc4cc(-c5cc[nH]n5)ccc4c3n2)CC1 records pEC50 of 6 or higher.
RESULT: not satisfied

QUERY: Test whether the compound Nc1nc2cc(-c3cc[nH]n3)ccc2c2cn(CCNC(=O)c3cccnc3)nc12 records pEC50 of 6 or higher.
RESULT: not satisfied

QUERY: Test whether the compound Cc1cc(Cn2cc3c(n2)c(N)nc2cc(-c4cc[nH]n4)ccc23)no1 records pEC50 of 6 or higher.
RESULT: satisfied

QUERY: Test whether the compound COc1cccc(C(=O)NCCn2cc3c(n2)c(N)nc2cc(-c4cc[nH]n4)ccc23)c1 records pEC50 of 6 or higher.
RESULT: not satisfied

QUERY: Test whether the compound Nc1nc2cc(-n3cccn3)ccc2c2cn(Cc3ccccn3)nc12 records pEC50 of 6 or higher.
RESULT: not satisfied

QUERY: Test whether the compound Nc1nc2cc(-n3cccn3)ccc2c2cn(CCN3CCOCC3)nc12 records pEC50 of 6 or higher.
RESULT: not satisfied

QUERY: Test whether the compound Nc1nc2cc(-c3cc[nH]n3)ccc2c2cn(CCNC(=O)c3cscn3)nc12 records pEC50 of 6 or higher.
RESULT: satisfied
